# MEASUREMENT TARGET: ceh-23 (ZK652.5) (Caenorhabditis elegans) (UniProt P34663)
# Sequence: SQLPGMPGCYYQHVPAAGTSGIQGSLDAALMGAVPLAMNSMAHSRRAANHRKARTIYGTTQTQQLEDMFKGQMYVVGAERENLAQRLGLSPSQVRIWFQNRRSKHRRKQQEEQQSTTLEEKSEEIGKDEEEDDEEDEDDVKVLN
ASSAY ENDPOINT: binding signal (PBM E-score (-0.5 to 0.5))

* ACTAATTA (double strand) [8-mer ACTAATTA] | 0.495
* AATTAATT (double strand) [8-mer AATTAATT] | 0.492
* CCTAATTA (double strand) [8-mer CCTAATTA] | 0.495

Input: Please look up its binding signal (PBM E-score (-0.5 to 0.5)): CTAATTAG (double strand) [8-mer CTAATTAG]
Output: 0.495

Input: Please look up its binding signal (PBM E-score (-0.5 to 0.5)): TAATTAAA (double strand) [8-mer TAATTAAA]
Output: 0.493

----------
# MEASUREMENT TARGET: nhr-204 (R02C2.4) (Caenorhabditis elegans)
# Sequence: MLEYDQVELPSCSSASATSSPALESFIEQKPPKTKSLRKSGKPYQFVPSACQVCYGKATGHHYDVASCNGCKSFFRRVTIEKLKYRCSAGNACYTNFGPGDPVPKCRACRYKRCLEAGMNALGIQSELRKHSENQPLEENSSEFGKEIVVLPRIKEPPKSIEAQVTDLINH
ASSAY ENDPOINT: binding signal (PBM E-score (-0.5 to 0.5))
Answer as a number with no unit attached.

Known binding signal (PBM E-score (-0.5 to 0.5)) results, listed for orientation:
- AATTGGTC (double strand) [8-mer AATTGGTC]: 0.484
- ATTGATCA (double strand) [8-mer ATTGATCA]: 0.489
- AATTGATC (double strand) [8-mer AATTGATC]: 0.477
- GTTGATCA (double strand) [8-mer GTTGATCA]: 0.482

Moving on to another sequence below.
Input: Please look up its binding signal (PBM E-score (-0.5 to 0.5)): GACCAAAA (double strand) [8-mer GACCAAAA]
Output: 0.476

----------
Reported binding signal (PBM E-score (-0.5 to 0.5)) values for a set of sequences
# MEASUREMENT TARGET: fkh-9 (K03C7.2) (Caenorhabditis elegans)
# Sequence: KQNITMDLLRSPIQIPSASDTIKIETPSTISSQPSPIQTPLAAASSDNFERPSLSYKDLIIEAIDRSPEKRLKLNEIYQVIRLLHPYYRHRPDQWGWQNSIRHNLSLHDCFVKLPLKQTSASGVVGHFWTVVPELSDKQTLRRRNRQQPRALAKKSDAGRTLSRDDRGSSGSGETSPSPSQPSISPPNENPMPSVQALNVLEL

Known binding signal (PBM E-score (-0.5 to 0.5)) results, listed for orientation:
• AAAACAAC (double strand) [8-mer AAAACAAC] = 0.491
• AATAACAA (double strand) [8-mer AATAACAA] = 0.494
• TCAAAACA (double strand) [8-mer TCAAAACA] = 0.491
• CAATAACA (double strand) [8-mer CAATAACA] = 0.488
• TCATAACA (double strand) [8-mer TCATAACA] = 0.485
• CATAACAA (double strand) [8-mer CATAACAA] = 0.486
• AACAACAA (double strand) [8-mer AACAACAA] = 0.487
• GTAAACAA (double strand) [8-mer GTAAACAA] = 0.492

Input: Please look up its binding signal (PBM E-score (-0.5 to 0.5)): GAAAACAA (double strand) [8-mer GAAAACAA]
Output: 0.489

Input: Please look up its binding signal (PBM E-score (-0.5 to 0.5)): TGTAAACA (double strand) [8-mer TGTAAACA]
Output: 0.485

Input: Please look up its binding signal (PBM E-score (-0.5 to 0.5)): TAAAAACA (double strand) [8-mer TAAAAACA]
Output: 0.485
